Ref: the supplement of paper PMC10307832

Recorded relative viability values for a group of compounds are listed next.
# Tested on: NCI-H2228
# Assay text: relative viability (nuclei count vs DMSO), 5 days (fraction); higher = more cells survive
# Experimental parameters: first compound 0.006325 µM
Reply briefly: the number, and no unit.

Compound	Experimental system	relative viability
CC(=O)O[C@@]12CO[C@@H]1C[C@H](O)[C@@]1(C)C(=O)[C@H](O)C3=C(C)[C@@H](OC(=O)[C@H](O)[C@@H](NC(=O)OC(C)(C)C)c4ccccc4)C[C@@](O)([C@@H](OC(=O)c4ccccc4)[C@H]21)C3(C)C [Docetaxel] + COc1cccc2cc(-c3nc([C@H]4CC[C@H](C(=O)O)CC4)n4ncnc(N)c34)[nH]c12 [OSI-027] (partner 0.5 µM)	NCI-H2228	0.161
CC(=O)O[C@@]12CO[C@@H]1C[C@H](O)[C@@]1(C)C(=O)[C@H](O)C3=C(C)[C@@H](OC(=O)[C@H](O)[C@@H](NC(=O)OC(C)(C)C)c4ccccc4)C[C@@](O)([C@@H](OC(=O)c4ccccc4)[C@H]21)C3(C)C [Docetaxel] + C[C@@H](Oc1cc(-c2cnn(C3CCNCC3)c2)cnc1N)c1c(Cl)ccc(F)c1Cl [Crizotinib] (partner 1 µM)	NCI-H2228	0.278
CC(=O)O[C@@]12CO[C@@H]1C[C@H](O)[C@@]1(C)C(=O)[C@H](O)C3=C(C)[C@@H](OC(=O)[C@H](O)[C@@H](NC(=O)OC(C)(C)C)c4ccccc4)C[C@@](O)([C@@H](OC(=O)c4ccccc4)[C@H]21)C3(C)C [Docetaxel] + Cc1nc(Nc2ncc(C(=O)Nc3c(C)cccc3Cl)s2)cc(N2CCN(CCO)CC2)n1 [Dasatinib] (partner 0.075 µM)	NCI-H2228	0.146

Item under review: CC(=O)O[C@@]12CO[C@@H]1C[C@H](O)[C@@]1(C)C(=O)[C@H](O)C3=C(C)[C@@H](OC(=O)[C@H](O)[C@@H](NC(=O)OC(C)(C)C)c4ccccc4)C[C@@](O)([C@@H](OC(=O)c4ccccc4)[C@H]21)C3(C)C [Docetaxel] + Nc1nc2[nH]cc(CCc3ccc(C(=O)N[C@@H](CCC(=O)O)C(=O)O)cc3)c2c(=O)[nH]1 [Pemetrexed] (partner 0.2 µM) . Reported relative viability? 0.146

Item under review: CC(=O)O[C@@]12CO[C@@H]1C[C@H](O)[C@@]1(C)C(=O)[C@H](O)C3=C(C)[C@@H](OC(=O)[C@H](O)[C@@H](NC(=O)OC(C)(C)C)c4ccccc4)C[C@@](O)([C@@H](OC(=O)c4ccccc4)[C@H]21)C3(C)C [Docetaxel] + Cc1nc(NC(=O)N2CCC[C@H]2C(N)=O)sc1-c1ccnc(C(C)(C)C(F)(F)F)c1 [Alpelisib] (partner 2 µM) . Reported relative viability? 0.151

====

# Test system: HCC-366
# Assay text: relative viability (nuclei count vs DMSO), 5 days (fraction); higher = more cells survive
# Experimental parameters: first compound 2.53 µM
Measure name: relative viability
Reply briefly: the number, and no unit.

Worked cases, relative viability given:
Compound	relative viability
Cc1cnc(-c2cnc(NCCNc3ccc(C#N)cn3)nc2-c2ccc(Cl)cc2Cl)[nH]1 + C[C@@H](Oc1cc(-c2cnn(C3CCNCC3)c2)cnc1N)c1c(Cl)ccc(F)c1Cl [Crizotinib] (partner 1 µM)	0.422
Cc1cnc(-c2cnc(NCCNc3ccc(C#N)cn3)nc2-c2ccc(Cl)cc2Cl)[nH]1 + N=C(N)NC(=N)NCCc1ccccc1 [Phenformin] (partner 250 µM)	0.507
O=c1[nH]c2ccccc2n1C1CCN(CCCC(c2ccc(F)cc2)c2ccc(F)cc2)CC1 [Pimozide] + Nc1ncn([C@H]2C[C@H](O)[C@@H](CO)O2)c(=O)n1 [Decitabine] (partner 2 µM)	0.346
Cc1cnc(-c2cnc(NCCNc3ccc(C#N)cn3)nc2-c2ccc(Cl)cc2Cl)[nH]1 + COc1cc2c(Oc3ccc(NC(=O)C4(C(=O)Nc5ccc(F)cc5)CC4)cc3F)ccnc2cc1OCCCN1CCOCC1 [Foretinib] (partner 0.25 µM)	0.922
Cc1cnc(-c2cnc(NCCNc3ccc(C#N)cn3)nc2-c2ccc(Cl)cc2Cl)[nH]1 + Nc1ncn([C@H]2C[C@H](O)[C@@H](CO)O2)c(=O)n1 [Decitabine] (partner 2 µM)	0.335

Item under review: O=c1[nH]c2ccccc2n1C1CCN(CCCC(c2ccc(F)cc2)c2ccc(F)cc2)CC1 [Pimozide] + Cc1cc(Nc2cc(N3CCN(C)CC3)nc(Sc3ccc(NC(=O)C4CC4)cc3)n2)n[nH]1 [Tozasertib] (partner 0.1 µM) . Reported relative viability? 0.0868

Item under review: O=c1[nH]c2ccccc2n1C1CCN(CCCC(c2ccc(F)cc2)c2ccc(F)cc2)CC1 [Pimozide] + CC(=O)Nc1cccc(-n2c(=O)n(C3CC3)c(=O)c3c(Nc4ccc(I)cc4F)n(C)c(=O)c(C)c32)c1 [Trametinib] (partner 0.02 µM) . Reported relative viability? 0.298

Item under review: Cc1cnc(-c2cnc(NCCNc3ccc(C#N)cn3)nc2-c2ccc(Cl)cc2Cl)[nH]1 + CC(=O)Nc1cccc(-n2c(=O)n(C3CC3)c(=O)c3c(Nc4ccc(I)cc4F)n(C)c(=O)c(C)c32)c1 [Trametinib] (partner 0.02 µM) . Reported relative viability? 0.326

====

# System: NCI-H1651
# Assay text: relative viability (nuclei count vs DMSO), 5 days (fraction); higher = more cells survive
# Experimental parameters: first compound 0.5 µM
Recorded relative viability values for a group of compounds are listed next.
Reply briefly: the number, and no unit.

Compound	relative viability
COc1cc2nccc(Oc3ccc(NC(=O)Nc4cc(C)on4)c(Cl)c3)c2cc1OC [Tivozanib] + CC(C)C[C@H](NC(=O)[C@H](Cc1ccccc1)NC(=O)c1cnccn1)B(O)O [Bortezomib] (partner 0.002 µM)	0.986
COc1cc2nccc(Oc3ccc(NC(=O)Nc4cc(C)on4)c(Cl)c3)c2cc1OC [Tivozanib] + N=C(N)NC(=N)NCCc1ccccc1 [Phenformin] (partner 250 µM)	0.315

Item under review: Nc1ccn([C@@H]2O[C@H](CO)[C@@H](O)[C@@H]2O)c(=O)n1 [Cytarabine] + CS(=O)(=O)CCNCc1ccc(-c2ccc3ncnc(Nc4ccc(OCc5cccc(F)c5)c(Cl)c4)c3c2)o1 [Lapatinib] (partner 2 µM) . Reported relative viability? 0.288

====

# Tested on: COR-L23
# Assay text: relative viability (nuclei count vs DMSO), 5 days (fraction); higher = more cells survive
# Experimental parameters: first compound 0.4 µM
Recorded relative viability values for a group of compounds are listed next.
Reply briefly: the number, and no unit.

Worked cases, relative viability given:
Compound	relative viability
Cc1sc2c(c1C)C(c1ccc(Cl)cc1)=N[C@@H](CC(=O)OC(C)(C)C)c1nnc(C)n1-2 [JQ1] + Cc1nc(Nc2ncc(C(=O)Nc3c(C)cccc3Cl)s2)cc(N2CCN(CCO)CC2)n1 [Dasatinib] (partner 0.075 µM)	0.516
Cc1sc2c(c1C)C(c1ccc(Cl)cc1)=N[C@@H](CC(=O)OC(C)(C)C)c1nnc(C)n1-2 [JQ1] + COc1cc2c(Oc3ccc(NC(=O)C4(C(=O)Nc5ccc(F)cc5)CC4)cc3F)ccnc2cc1OCCCN1CCOCC1 [Foretinib] (partner 0.25 µM)	0.892
Cc1sc2c(c1C)C(c1ccc(Cl)cc1)=N[C@@H](CC(=O)OC(C)(C)C)c1nnc(C)n1-2 [JQ1] + CS(=O)(=O)N1CCN(Cc2cc3nc(-c4cccc5[nH]ncc45)nc(N4CCOCC4)c3s2)CC1 [Pictilisib] (partner 1 µM)	0.524

Please turn your attention to the following entry.
Item under review: Cc1sc2c(c1C)C(c1ccc(Cl)cc1)=N[C@@H](CC(=O)OC(C)(C)C)c1nnc(C)n1-2 [JQ1] + O=C(CCCCCCC(=O)Nc1ccccc1)NO [Vorinostat] (partner 1 µM) . Reported relative viability? 0.401

====

# System: NCI-H1792
# Assay text: relative viability (nuclei count vs DMSO), 5 days (fraction); higher = more cells survive
# Experimental parameters: first compound 0.5 µM
Recorded relative viability values for a group of compounds are listed next.
Reply briefly: the number, and no unit.

Compound	relative viability
Nc1ccn([C@@H]2O[C@H](CO)[C@@H](O)[C@@H]2O)c(=O)n1 [Cytarabine] + N=C(N)NC(=N)NCCc1ccccc1 [Phenformin] (partner 250 µM)	0.133
Nc1ccn([C@@H]2O[C@H](CO)[C@@H](O)[C@@H]2O)c(=O)n1 [Cytarabine] + C[C@@H](Oc1cc(-c2cnn(C3CCNCC3)c2)cnc1N)c1c(Cl)ccc(F)c1Cl [Crizotinib] (partner 1 µM)	0.465

Item under review: COc1cc2nccc(Oc3ccc(NC(=O)Nc4cc(C)on4)c(Cl)c3)c2cc1OC [Tivozanib] + CC(C)C[C@H](NC(=O)[C@H](Cc1ccccc1)NC(=O)c1cnccn1)B(O)O [Bortezomib] (partner 0.002 µM) . Reported relative viability? 0.947

Item under review: COc1cc2nccc(Oc3ccc(NC(=O)Nc4cc(C)on4)c(Cl)c3)c2cc1OC [Tivozanib] + NC(=O)Nc1cc(-c2cccc(F)c2)sc1C(=O)N[C@H]1CCCNC1 [AZD7762] (partner 0.2 µM) . Reported relative viability? 0.53
